Listed compounds paired with reported Activity of Enzyme No. 466 with metal ion (%)
Tested on: Enzyme No. 466 (transglutaminase of Streptomyces lavendulae No. 466)
Experiment: Influence of metal ions on transglutaminase activity
Format: biochemical
Details: metal ion 1 mM in activity measurement system; None = 100; 10 min
Reported Property: Activity of Enzyme No. 466 with metal ion (%)

• [Cl][Cu][Cl] [CuCl2] = 90
• [Cl][Fe]([Cl])[Cl] [FeCl3] = 97
• [Cl][Pb][Cl] [PbCl2] = 32
• [Cl-].[Cl-].[Zn+2] [ZnCl2] = 10
• [Cl-].[Na+] [NaCl] = 98
• [Cl-].[Cl-].[Co+2] [CoCl2] = 98
• [Cl-].[Cl-].[Sr+2] [SrCl2] = 97
• [Ba+2].[Cl-].[Cl-] [BaCl2] = 100
